system: CYP-induced visceral pain; experiment: Acute cyclophosphamide (CYP)-induced cystitis model, von Frey mechanical stimulation; format: in vivo, female Sprague-Dawley rats; settings: 500 mg/kg p.o., +4 h after CYP
readout.name: nociceptive scores (CYP-induced visceral pain) vs vehicle

molecule=NC(=O)c1ccc[n+]([C@@H]2O[C@H](COP(=O)([O-])OP(=O)([O-])OC[C@H]3O[C@H]([n+]4cccc(C(N)=O)c4)[C@H](O)[C@@H]3O)[C@@H](O)[C@H]2O)c1 measured_result="significant decrease"
molecule=NC(=O)c1ccc[n+]([C@H]2O[C@H](COP(=O)([O-])OP(=O)([O-])OC[C@H]3O[C@H]([n+]4cccc(C(N)=O)c4)[C@H](O)[C@@H]3O)[C@@H](O)[C@H]2O)c1 measured_result="significant decrease"
molecule="NC(=O)c1ccc[n+]([C@@H]2O[C@H](COP(=O)([O-])O)[C@@H](O)[C@H]2O)c1 [NMN, Nicotinamide Mononucleotide, reference compound]" measured_result="significant decrease"
